type: cell-based; settings: Cell viability (%)
Bridge positions count the residues as written; N and C are the ends. Square brackets hold non-standard residues; d marks the D form. Peptide text beside a SMILES is read from it. Pro(cis-4-guanidino) = NC(N)=N[C@@H]1CN[C@H](C(=O)O)C1; Phe(4-guanidino) = N=C(N)Nc1ccc(C[C@H](N)C(=O)O)cc1
For each of the compounds below, state its viability at 2 h, 50 µM.
Provide only the numeric value, understood in %.

query: # viability at 2 h, 50 µM lookup, item CC[C@H](C)[C@H](NC(=O)[C@H](CCCNC(=N)N)NC(=O)[C@H]1CCCCNC(=N)NCCCC[C@H](NC(=O)[C@H](Cc2ccccc2)NC(=O)[C@H](Cc2c[nH]c3ccccc23)NC(=O)[C@@H]2CCCN2C(=O)[C@@H](NC(=O)[C@@H](N)Cc2ccccc2)C(C)C)C(=O)N[C@@H](CCCCN)C(=O)N[C@@H](Cc2ccccc2)C(=O)N[C@H](CC(C)C)C(=O)N1)C(=O)N[C@@H](CC(C)C)C(N)=O [Peptide 12, FVPWF{KKFlk}RIL]
result: 4

query: What do we get for CC[C@H](C)[C@H](NC(=O)[C@H](CCCNC(=N)N)NC(=O)[C@H]1CCC(=O)NCCCC[C@H](NC(=O)[C@H](Cc2ccccc2)NC(=O)[C@H](Cc2c[nH]c3ccccc23)NC(=O)[C@@H]2C[C@H](NC(=N)N)CN2C(=O)[C@@H](NC(=O)[C@@H](N)Cc2ccccc2)C(C)C)C(=O)N[C@@H](CCCCN)C(=O)N[C@@H](Cc2ccccc2)C(=O)N[C@H](CC(C)C)C(=O)N1)C(=O)N[C@@H](CC(C)C)C(N)=O [Peptide 7, FV(4-guanidino)PWF[KKFle]RIL] (H-FV[Pro(cis-4-guanidino)]WFKKF[dL][dE]RIL-NH2; lactam 6-10) ?
result: 6

query: Check CC[C@H](C)[C@H](NC(=O)[C@H](CCCNC(=N)N)NC(=O)[C@H]1CCC(=O)NCCCC[C@H](NC(=O)[C@H](Cc2ccccc2)NC(=O)[C@H](Cc2c[nH]c3ccccc23)NC(=O)[C@@H]2CCCN2C(=O)[C@@H](NC(=O)[C@@H](N)Cc2ccc(NC(=N)N)cc2)C(C)C)C(=O)N[C@@H](CCCCN)C(=O)N[C@@H](Cc2ccccc2)C(=O)N[C@H](CC(C)C)C(=O)N1)C(=O)N[C@@H](CC(C)C)C(N)=O [Peptide 6, (p-guanidino)FVPWF[KKFle]RIL] (H-[Phe(4-guanidino)]VPWFKKF[dL][dE]RIL-NH2; lactam 6-10) too.
result: 30
